Values compiled from paper PMC5540273.

Catalogue of molecules with associated %Inh
System: EPHB6;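 note: KINOMEscan kinase panel screen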
Details: concentration: 1 μM,replicates: in singlicate; n = 1

{"columns": ["Molecule", "Measure unit", "%Inh"],
 "data": [
  ["Cl.Cl.NC[C@H](CC1CCCCC1)NC(=O)c1cc(Br)c(-c2ccnc3[nH]ccc23)s1", "%", 10],
  ["Cc1cc(C(=O)Nc2ccc(Oc3ccc4nc(NC(=O)C5CC5)cn4n3)cc2)nn1-c1ccccc1", "%", 89],
  ["O=C(NCCCN1CCOC1=O)c1cnc(NCc2cc(Cl)ccc2Cl)nc1NC1CCCC1", "%", 19],
  ["C[C@@H]1CCN(C(=O)CC#N)C[C@@H]1N(C)c1ncnc2[nH]ccc12", "%", 10],
  ["CNC(=O)c1ccccc1Sc1ccc2c(/C=C/c3ccccn3)n[nH]c2c1", "%", 80],
  ["COc1ccc(C[C@@H](CN)NC(=O)c2cc(Br)c(-c3ccnc4[nH]ccc34)s2)cc1.Cl.Cl", "%", 35],
  ["C=CC(=O)Nc1cc2c(Nc3ccc(F)c(Cl)c3)ncnc2cc1OCCCN1CCOCC1", "%", 52],
  ["CC(C)Nc1cc(-c2ccc3c(N)n[nH]c3c2)nc(N)n1", "%", 0],
  ["CN(C)CC(O)COc1ccc(Nc2nccc(-c3cnn4nc(N5CCOCC5)ccc34)n2)cc1 (stereo not drawn)", "%", 73],
  ["Cl.Cl.NC[C@H](Cc1ccc(C(F)(F)F)cc1)NC(=O)c1cc(Br)c(-c2ccnc3[nH]ccc23)s1", "%", 12],
  ["CCN(CC)CCOc1ccc(Nc2ncc3cc(-c4c(Cl)cccc4Cl)c(=O)n(C)c3n2)cc1", "%", 98.9],
  ["O=C(NCCNc1ccnc(NCc2ccc(F)cc2)n1)c1cc2ccccc2s1", "%", 18],
  ["Cc1ccc2c(-c3ccncc3)c(-c3ccc(F)cc3)nn2c1.Cl", "%", 27],
  ["Cl.Cl.Nc1nc(-c2ccc3c(N)n[nH]c3c2)cc(N2CCCC(NC(=O)c3ccccc3)C2)n1 (stereo not drawn)", "%", 26],
  ["CN(C)CCOc1ccc(-c2cc(-c3c[nH]nc3-c3ccccn3)ccn2)cc1", "%", 8]
]}
